# System: HCI11 (cells of an ER-positive luminal breast cancer xenograft);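 further: PDX cells carrying CMV promoter-driven luciferase, viability read as total photon flux per second by IVIS imaging following D-luciferin, vehicle control 0.1% DMSO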
# test-description: cell viability (% of vehicle); higher = less cytotoxic
# test-context: 10 µM; 72 h
Please go through the items and note down their cell viability.
Reply with the value as a number alone.

Input: Recorded cell viability of COCCCOc1cc(CC(CC(N)C(O)CC(C(=O)NCC(C)(C)C(N)=O)C(C)C)C(C)C)ccc1OC.COCCCOc1cc(CC(CC(N)C(O)CC(C(=O)NCC(C)(C)C(N)=O)C(C)C)C(C)C)ccc1OC.O=C(O)C=CC(=O)O (configuration not stated) [Aliskiren Hemifumarate] , please.
Output: 97.2

Input: CCCCC(=O)N(Cc1ccc(-c2ccccc2-c2nn[nH]n2)cc1)C(C(=O)O)C(C)C (configuration not stated) [Valsartan] , same question.
Output: 97.2

Input: How about this compound: CCN(CC)CCOC(=O)C1(C2CCCCC2)CCCCC1.Cl [Dicyclomine HCl]
Output: 99.7

Input: And the next one, C=C(c1ccc(C(=O)O)cc1)c1cc2c(cc1C)C(C)(C)CCC2(C)C [Bexarotene] ?
Output: 100

Input: Okay, and CCC1OC(=O)C(C)C(OC2CC(C)(OC)C(O)C(C)O2)C(C)C(OC2OC(C)CC(N(C)C)C2O)C(C)(O)CC(C)C(=NOCOCCOC)C(C)C(O)C1(C)O (configuration not stated) [Roxithromycin] ?
Output: 101

Input: Now this one: CCCCC1C(=O)N(c2ccccc2)N(c2ccccc2)C1=O [Phenylbutazone]
Output: 97.2

Input: # iterate: COc1cc(Nc2c(C#N)cnc3cc(OCCCN4CCN(C)CC4)c(OC)cc23)c(Cl)cc1Cl [Bosutinib (SKI-606)]
Output: 101
